assay: in vitro; conditions: human, hela cells, % viability
Value Type: viability at 28.5 h, 10 µM
Write the numeric value and append its unit.

| Compound | Value Type | Readout Value |
| --- | --- | --- |
| CCN(C(=O)c1cnc2scc(C)n2c1=O)c1ccccc1 [CBK287452] | viability at 28.5 h, 10 µM | 105% |

Ask | viability at 28.5 h, 10 µM lookup needed for Cc1cc(C(F)F)nn1CC(=O)N1CCc2ncc(Cl)cc2C1 [CBK284853] , thanks.
Reply | 108%

Ask | If you can, please state the reported viability at 28.5 h, 10 µM value of CCC(CNC(=O)c1cc(-c2ccco2)nc2c(C(N)=O)ncn12)c1ccccc1 (stereo not drawn) [CBK297779] .
Reply | 94.2%

* * *

test: in vitro; conditions: human, hela cells, % viability
Each record here notes measured viability at 28.5 h, 10 µM.
Numbers only here, please. The scale is %.

Below, each entry is followed by its recorded viability at 28.5 h, 10 µM result.
| Compound | Readout Unit | viability at 28.5 h, 10 µM |
| --- | --- | --- |
| COc1ccccc1NC(=O)C1CN(S(=O)(=O)c2ccccc2)CCN1S(=O)(=O)c1ccccc1 (centres unmarked) | % | 93.5 |
| Cc1cc(C)n(-c2cccc(CN3CCC(CO)C3)c2)n1 (centres unmarked) | % | 94.8 |

Ask | Tell me the measured viability at 28.5 h, 10 µM of `COc1cc(NS(=O)(=O)c2ccccc2)c(Cl)cc1C(=O)O` , please.
Reply | 98

Ask | Which viability at 28.5 h, 10 µM is reported for this compound? `c1ccc(OCCOc2nccnc2-c2cc3ccccc3s2)cc1`
Reply | 92.3

Ask | Item CCCN1CCN(C(=O)c2ccc(=O)n(C)c2)C(Cc2ccccc2-c2ccccc2)C1=O (centres unmarked) has what recorded viability at 28.5 h, 10 µM?
Reply | 108

Ask | Requested read-out: viability at 28.5 h, 10 µM. Entry: `COc1ccc(C(=O)Nc2ccccc2C(=O)NCCCC(=O)O)cc1`
Reply | 111

Ask | Fill in: viability at 28.5 h, 10 µM of `COCCNC(=O)c1ccc(-c2ccccc2)nc1N(C)C` is ___
Reply | 99.8

Ask | Consider the compound `CC(=O)N(C)c1nc(-c2cccc(N(C)C)c2)ccc1C(=O)N(C)C` and give its measured viability at 28.5 h, 10 µM.
Reply | 92.3

Ask | Given CC1CCc2c(sc(NC(=O)CCN3C(=O)c4ccccc4C3=O)c2C(N)=O)C1 (centres unmarked) , state its recorded viability at 28.5 h, 10 µM.
Reply | 94.4

Ask | I would be grateful if you could share the reported viability at 28.5 h, 10 µM for `CC(=O)Nc1ccc(CCNC(=O)NCc2nc(C3CC3)no2)cc1` .
Reply | 96.1

Ask | GET /values?readout=viability at 28.5 h, 10 µM&item= `Cc1ccccc1CN1CCC(O)(c2cccnc2F)CC1`
Reply | 96

Ask | Entry Cc1csc(C(Cc2cccs2)NC(=O)C2CCOC2)n1 (centres unmarked) has what viability at 28.5 h, 10 µM?
Reply | 106

Ask | Look up viability at 28.5 h, 10 µM: `FC(F)(F)c1nc2ccccc2nc1Sc1ccncc1`
Reply | 92.8

Ask | Any idea what its viability at 28.5 h, 10 µM is? The compound is `Cn1ccnc1C1(O)CCN(C(=O)NCc2ccccc2)CC1`
Reply | 94.9
